Assignment: determine reported NI activity, EC50 (NI-ELLA), PR8 virus for the given binders.
TARGET OF ASSAY: recombinant trimeric HA of A/Puerto Rico/8/1934 (H1N1) (influenza A virus A/Puerto Rico/8/1934 …, UniProt P03452)
Sequence (P03452 18-528): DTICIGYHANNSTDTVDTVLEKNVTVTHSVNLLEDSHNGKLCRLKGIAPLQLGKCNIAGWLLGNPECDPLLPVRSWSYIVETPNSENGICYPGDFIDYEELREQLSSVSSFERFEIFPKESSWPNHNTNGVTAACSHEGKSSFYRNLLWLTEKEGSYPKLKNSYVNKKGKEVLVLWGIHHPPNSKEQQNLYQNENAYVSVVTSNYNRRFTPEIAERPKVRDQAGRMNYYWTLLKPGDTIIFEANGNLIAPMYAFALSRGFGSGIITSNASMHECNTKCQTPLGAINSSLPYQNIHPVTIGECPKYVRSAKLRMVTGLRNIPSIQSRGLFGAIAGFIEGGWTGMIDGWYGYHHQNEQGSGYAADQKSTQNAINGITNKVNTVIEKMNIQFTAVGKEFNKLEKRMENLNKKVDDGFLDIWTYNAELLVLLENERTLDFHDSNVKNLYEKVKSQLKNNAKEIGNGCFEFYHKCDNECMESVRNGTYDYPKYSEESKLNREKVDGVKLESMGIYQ
TEST PROTOCOL: cell-based or functional assay
Dear colleague, please send the value followed by its unit.

**Query** Dear colleague, I am looking for the recorded NI activity, EC50 (NI-ELLA), PR8 virus of the following binder: F11 IgA2m2 polymer (antibody, V domains shown) VH: QVQLVQSGAEVKRPGSSVRVSCRTSGGSFTSFAISWVRQAPGQGLEWMGRITRILGVPNYAQKFQGRVTITADMPTTTAYLDLTNLRSEDTAVYYCARDSGTSHGDFDYWGQGTLVTVSS VL: EIVLTQSPVTLSLSPGERATLSCRASQNVINSLVWYQQKPGQAPRLLIYGASNRATGIPARFRGSGSGTDFTLTIDSLEPEDIAVYYCQQRGTWLWSFGQGTKVEIK
**Result** 0.418 mg/L

**Query** Dear colleague, I am looking for the recorded NI activity, EC50 (NI-ELLA), PR8 virus of the following binder: F11 IgA1 polymer (antibody, V domains shown) VH: QVQLVQSGAEVKRPGSSVRVSCRTSGGSFTSFAISWVRQAPGQGLEWMGRITRILGVPNYAQKFQGRVTITADMPTTTAYLDLTNLRSEDTAVYYCARDSGTSHGDFDYWGQGTLVTVSS VL: EIVLTQSPVTLSLSPGERATLSCRASQNVINSLVWYQQKPGQAPRLLIYGASNRATGIPARFRGSGSGTDFTLTIDSLEPEDIAVYYCQQRGTWLWSFGQGTKVEIK
**Result** 0.222 mg/L

**Query** Dear colleague, I am looking for the recorded NI activity, EC50 (NI-ELLA), PR8 virus of the following binder: F11 IgA2m2 monomer (antibody, V domains shown) VH: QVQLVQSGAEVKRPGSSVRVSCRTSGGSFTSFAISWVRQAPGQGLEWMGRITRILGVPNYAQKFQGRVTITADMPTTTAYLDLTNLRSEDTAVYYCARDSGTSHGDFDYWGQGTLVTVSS VL: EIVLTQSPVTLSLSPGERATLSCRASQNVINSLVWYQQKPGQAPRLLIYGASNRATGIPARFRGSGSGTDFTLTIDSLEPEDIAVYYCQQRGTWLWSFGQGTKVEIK
**Result** 0.683 mg/L
